Assay: Solubility in water
Type: physicochemical
Quick list: Löslichkeit in Wasser bei 20°C und 300 mg I/ml per entry.

Recorded results for 6 compounds are shown here.
INSERT INTO assay_data (compound, result) VALUES
  ('O=C(NCCO)c1c(I)c(C(=O)NCC(O)CO)c(I)c(N(CCO)C(=O)C(O)C(=O)N(CCO)c2c(I)c(C(=O)NCCO)c(I)c(C(=O)NCC(O)CO)c2I)c1I (stereo not shown) [Beispiel 10]', '>60%'),
  ('NC(=O)c1c(I)c(C(=O)NCC(O)CO)c(I)c(N(CCO)C(=O)C(O)C(=O)N(CCO)c2c(I)c(C(N)=O)c(I)c(C(=O)NCC(O)CO)c2I)c1I (stereo not shown) [Beispiel 8]', '<60%'),
  ('CN(C(=O)C(O)C(=O)N(C)c1c(I)c(C(=O)NCC(O)CO)c(I)c(C(=O)NCC(O)CO)c1I)c1c(I)c(C(N)=O)c(I)c(C(=O)NCC(O)CO)c1I (stereo not shown) [Beispiel 7]', '>60%'),
  ('CN(C(=O)C(=O)C(=O)N(C)c1c(I)c(C(=O)NCC(O)CO)c(I)c(C(=O)NCC(O)CO)c1I)c1c(I)c(C(=O)NCC(O)CO)c(I)c(C(=O)NCC(O)CO)c1I (stereo not shown) [Beispiel 13]', '>60%'),
  ('CC(=O)N(CC(O)CN(C(C)=O)c1c(I)c(C(=O)NCC(O)CO)c(I)c(C(=O)NCC(O)CO)c1I)c1c(I)c(C(=O)NCC(O)CO)c(I)c(C(=O)NCC(O)CO)c1I (stereo not shown) [IODIXANOL, Iodixanol, reference compound]', '>60%'),
  ('CNC(=O)c1c(I)c(C(=O)NCC(O)CO)c(I)c(N(CC(O)CO)C(=O)C(O)C(=O)N(CC(O)CO)c2c(I)c(C(=O)NC)c(I)c(C(=O)NCC(O)CO)c2I)c1I (stereo not shown) [Beispiel 2]', '<60%');

Could you now look at the following compound, please?
Request the reported Löslichkeit in Wasser bei 20°C und 300 mg I/ml associated with O=C(NCCO)c1c(I)c(C(=O)NCC(O)CO)c(I)c(N(CC(O)CO)C(=O)CC(=O)N(CC(O)CO)c2c(I)c(C(=O)NCCO)c(I)c(C(=O)NCC(O)CO)c2I)c1I (stereo not shown) [Beispiel 4] >60%
